EXPERIMENTAL SYSTEM: MAGL (Homo sapiens)
Sequence (Q99685 1-303): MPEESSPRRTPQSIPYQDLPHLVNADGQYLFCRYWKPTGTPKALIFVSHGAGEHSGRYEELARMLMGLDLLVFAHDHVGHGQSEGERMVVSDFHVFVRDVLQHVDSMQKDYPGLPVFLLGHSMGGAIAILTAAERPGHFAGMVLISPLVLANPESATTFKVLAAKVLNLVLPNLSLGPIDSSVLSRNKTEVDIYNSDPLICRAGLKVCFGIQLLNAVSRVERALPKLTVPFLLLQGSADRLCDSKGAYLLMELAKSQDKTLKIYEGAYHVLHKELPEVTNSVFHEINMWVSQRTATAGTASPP
TEST NAME: Native MS (RapidFire) 2-AG substrate assay, purified human MAGL
Type: biochemical
CONDITION INFO: SI Table 1; read-out: IC50 against purified MAGL ± SEM, Human
PROPERTY: pIC50
Value format note: pIC50 is -log10 of concentration (mol/L); just state the number.

MOLECULE | NUMERIC READOUT
O=C1N[C@H](CCC(=O)N2CC3(CC(CC4=C5C=CC=[N+]5[B-](F)(F)n5cccc54)C3)C2)CO1 [Compound S17] | 9.00
O=C1CO[C@H]2CCN(C(=O)N3CC4(CC(=CC5=C6C=CC=[N+]6[B-](F)(F)n6cccc65)C4)C3)C[C@H]2N1 [Compound S13] | 7.36
NC(=O)[C@H]1CCN(C(=O)N2CC3(CC(CC4=C5C=CC=[N+]5[B-](F)(F)n5cccc54)C3)C2)C1 [Compound S18] | 8.70
O=C1NC2(CO1)CN(C(=O)N1CC3(CCC(=CC4=C5C=CC=[N+]5[B-](F)(F)n5cccc54)CC3)C1)C2 [Compound S16] | 9.17
O=C1NC2(CO1)CN(C(=O)N1CC3(CC(=CC4=C5C=CC=[N+]5[B-](F)(F)n5cccc54)C3)C1)C2 [Compound S14] | 7.90

We next turn to a different molecule, shown below.
INPUT: What value of pIC50 on MAGL (Homo sapiens) does O=C1NC2(CO1)CN(C(=O)N1CCC3(CC1)CC(OC1=C4C=CC=[N+]4[B-](F)(F)n4cccc41)C3)C2 [Compound S8] have?
OUTPUT: 8.40
